Study System: α1G T-type calcium channels (Homo sapiens)
Sequence (O43497 whole entry): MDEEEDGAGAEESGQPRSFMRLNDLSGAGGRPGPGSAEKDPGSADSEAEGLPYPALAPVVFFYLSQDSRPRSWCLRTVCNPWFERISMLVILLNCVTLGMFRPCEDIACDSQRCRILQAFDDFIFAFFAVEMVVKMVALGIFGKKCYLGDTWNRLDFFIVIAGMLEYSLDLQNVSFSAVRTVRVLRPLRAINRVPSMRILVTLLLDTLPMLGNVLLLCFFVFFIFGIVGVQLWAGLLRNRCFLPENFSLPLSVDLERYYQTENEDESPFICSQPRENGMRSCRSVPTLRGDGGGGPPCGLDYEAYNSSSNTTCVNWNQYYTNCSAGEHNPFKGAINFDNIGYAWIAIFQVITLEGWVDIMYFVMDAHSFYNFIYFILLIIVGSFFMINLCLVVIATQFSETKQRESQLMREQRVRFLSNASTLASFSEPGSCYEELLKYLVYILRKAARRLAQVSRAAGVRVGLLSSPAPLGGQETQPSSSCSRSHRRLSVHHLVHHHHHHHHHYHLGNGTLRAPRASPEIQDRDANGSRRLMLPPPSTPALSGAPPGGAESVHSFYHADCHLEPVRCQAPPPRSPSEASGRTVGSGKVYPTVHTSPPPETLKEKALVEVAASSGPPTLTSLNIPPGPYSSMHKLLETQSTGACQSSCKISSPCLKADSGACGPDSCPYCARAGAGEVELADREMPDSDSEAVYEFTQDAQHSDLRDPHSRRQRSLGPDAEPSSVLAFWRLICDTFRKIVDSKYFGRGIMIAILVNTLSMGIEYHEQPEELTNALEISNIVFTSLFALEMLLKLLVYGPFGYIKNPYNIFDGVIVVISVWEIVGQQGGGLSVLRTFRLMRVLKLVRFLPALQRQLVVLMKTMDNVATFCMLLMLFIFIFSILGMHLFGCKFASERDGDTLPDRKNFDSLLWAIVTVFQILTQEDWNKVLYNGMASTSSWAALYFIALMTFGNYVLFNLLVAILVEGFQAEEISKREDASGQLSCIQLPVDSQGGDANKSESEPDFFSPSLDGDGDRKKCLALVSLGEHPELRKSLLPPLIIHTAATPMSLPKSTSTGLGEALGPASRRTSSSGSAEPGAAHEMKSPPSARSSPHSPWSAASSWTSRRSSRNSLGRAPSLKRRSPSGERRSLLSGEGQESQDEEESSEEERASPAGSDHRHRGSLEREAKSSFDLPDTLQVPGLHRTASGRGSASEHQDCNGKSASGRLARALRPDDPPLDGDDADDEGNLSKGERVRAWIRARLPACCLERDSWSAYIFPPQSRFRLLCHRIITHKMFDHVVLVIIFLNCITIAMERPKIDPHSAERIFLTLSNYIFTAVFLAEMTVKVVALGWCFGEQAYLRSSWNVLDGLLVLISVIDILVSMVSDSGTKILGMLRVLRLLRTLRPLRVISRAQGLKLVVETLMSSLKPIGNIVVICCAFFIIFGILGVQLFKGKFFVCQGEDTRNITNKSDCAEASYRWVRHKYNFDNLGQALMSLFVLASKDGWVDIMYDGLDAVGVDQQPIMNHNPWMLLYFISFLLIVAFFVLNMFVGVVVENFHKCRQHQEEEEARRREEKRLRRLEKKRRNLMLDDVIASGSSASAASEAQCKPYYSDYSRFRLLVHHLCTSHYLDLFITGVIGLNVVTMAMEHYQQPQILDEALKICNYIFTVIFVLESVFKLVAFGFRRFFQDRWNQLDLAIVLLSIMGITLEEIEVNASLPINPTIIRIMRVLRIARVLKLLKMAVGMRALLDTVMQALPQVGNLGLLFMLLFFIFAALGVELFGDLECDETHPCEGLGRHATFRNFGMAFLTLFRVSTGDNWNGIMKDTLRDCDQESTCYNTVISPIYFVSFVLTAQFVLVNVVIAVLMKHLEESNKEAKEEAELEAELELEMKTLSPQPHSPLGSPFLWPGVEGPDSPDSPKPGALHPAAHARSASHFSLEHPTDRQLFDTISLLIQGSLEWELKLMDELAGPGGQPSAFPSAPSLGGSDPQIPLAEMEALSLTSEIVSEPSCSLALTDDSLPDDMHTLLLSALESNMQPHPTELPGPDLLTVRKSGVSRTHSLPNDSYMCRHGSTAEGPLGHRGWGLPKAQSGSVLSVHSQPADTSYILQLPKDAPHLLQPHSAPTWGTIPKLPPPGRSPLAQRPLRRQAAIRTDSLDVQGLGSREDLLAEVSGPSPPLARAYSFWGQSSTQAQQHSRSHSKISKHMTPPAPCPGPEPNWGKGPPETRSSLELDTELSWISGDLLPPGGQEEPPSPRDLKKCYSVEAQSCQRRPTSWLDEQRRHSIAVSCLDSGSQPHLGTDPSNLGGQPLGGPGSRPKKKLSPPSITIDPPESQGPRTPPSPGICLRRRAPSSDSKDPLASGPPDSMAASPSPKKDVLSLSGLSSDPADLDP
Assay Details: T-type calcium channel activity using electrophysiological whole-cell patch-clamp technique
Condition Parameters: HEK293 cells expressing α1G T-type calcium channels
Record form. Attribute: IC50. Fill in for each entry.
Please respond with the number in nM and leave the unit unwritten.

Task item: Supply reported IC50 belonging to this compound: O=C(CCn1cnc(-c2ccccc2)c1)N1CCN(c2ccccc2)CC1
Reply: 0.46

Task item: Supply reported IC50 belonging to this compound: O=C(CCn1ccnc1-c1ccccc1)N1CCN(Cc2ccc(Cl)c(Cl)c2)CC1
Reply: 9360

Task item: Supply reported IC50 belonging to this compound: Cc1nccn1CCC(=O)NCCN1CCN(C(c2ccccc2)c2ccccc2)CC1
Reply: 390

Task item: Supply reported IC50 belonging to this compound: O=C(CCn1cnc(-c2ccccc2)c1)N1CCN(Cc2ccc(Cl)cc2)CC1
Reply: 3000
